src = patent US20140288040A1

STUDY_SYSTEM: HCV NS3 protease (full length NS34a) (Hepatitis C virus genotype 1b, UniProt P26663)
Construct: The protease activity of the full length NS34a was measured using a FRET-based assay; made in house
Sequence (P26663 1658-1711): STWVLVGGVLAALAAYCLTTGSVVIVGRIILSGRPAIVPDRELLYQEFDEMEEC
Sequence (P26663 1027-1657): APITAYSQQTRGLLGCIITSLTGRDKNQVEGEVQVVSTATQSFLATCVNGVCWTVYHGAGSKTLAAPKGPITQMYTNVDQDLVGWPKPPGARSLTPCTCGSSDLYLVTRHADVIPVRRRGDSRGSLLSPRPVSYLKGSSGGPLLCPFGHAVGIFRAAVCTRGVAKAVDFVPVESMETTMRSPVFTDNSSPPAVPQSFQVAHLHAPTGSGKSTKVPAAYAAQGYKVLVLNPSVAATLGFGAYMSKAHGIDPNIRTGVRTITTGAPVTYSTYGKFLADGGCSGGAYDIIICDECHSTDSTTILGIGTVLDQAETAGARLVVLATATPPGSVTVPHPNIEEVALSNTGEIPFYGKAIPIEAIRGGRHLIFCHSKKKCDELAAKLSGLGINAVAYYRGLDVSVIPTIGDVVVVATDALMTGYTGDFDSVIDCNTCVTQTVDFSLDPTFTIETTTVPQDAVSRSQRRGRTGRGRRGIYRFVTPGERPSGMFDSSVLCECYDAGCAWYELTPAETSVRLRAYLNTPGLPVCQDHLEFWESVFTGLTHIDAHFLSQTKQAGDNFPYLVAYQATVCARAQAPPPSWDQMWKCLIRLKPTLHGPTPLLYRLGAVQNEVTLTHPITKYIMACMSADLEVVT
ASSAY_OVERVIEW: HCV NS3 protease assay (FRET, full length NS34a)
Type: biochemical
RECORDED_CONDITIONS: Activity IC50 (μM), protease activity of full length NS34a, FRET peptide substrate
ENDPOINT_LABEL: IC50 (µM)
Report only the number, with the unit µM understood.

Returns the measured IC50 for the input molecule. Input: `CC[C@@H](N[C@H](C)CC(=O)NCCN)c1ccc(Cl)c(Oc2ccccc2)c1F`
0.081

* * *

STUDY_SYSTEM: HCV NS3 protease (full length NS34a) (Hepatitis C virus genotype 1b, UniProt P26663)
Construct: The protease activity of the full length NS34a was measured using a FRET-based assay; made in house
ASSAY_OVERVIEW: HCV NS3 protease assay (FRET, full length NS34a)
Format: biochemical
RECORDED_CONDITIONS: protease activity of full length NS34a, FRET peptide substrate; read-out: Activity IC50
Description: The HCV NS3 protease functions have been extensively studied and are considered as potential targets for antiviral therapy: see for example the many references listed in the introductory section of this application. Therefore, the activity of the compounds of the invention as anti-HCV agents was assessed using a full length HCV NS3 protease. […]
pIC50: −log10 of the molar value. Counter-ions that a name gives are not always drawn.
Quick rule for you: pIC50 at 6 or higher means 1, lower means 0.

MOLECULE	STUDY_SYSTEM	GROUP_LABEL
C[C@@H](CC(N)=O)N[C@@H](CCO)c1ccc(Cl)c(Oc2ccccc2)c1F	HCV NS3 protease (full length NS34a) (Hepatitis C virus genotype 1b, UniProt P26663)	0

Decide: pIC50 of NC(C1=CCNCC1)c1ccc(F)c(Oc2ccccc2)c1F (centres unmarked) [Example 13, dihydrochloride] >= 6?
0

Is it the case that `CC[C@H](Nc1cccc2c1CNCC2)c1ccc(F)c(Oc2ccccc2)c1F` has pIC50 reaching or exceeding 6?
1

Is it the case that `C[C@H](CC(=O)NCCN)N[C@@H](CC1CCOCC1)c1ccc(Cl)c(Oc2ccccc2)c1F` has pIC50 reaching or exceeding 6?
0

Is pIC50 for `CC[C@@H](N)c1ccc(Cl)c(Oc2ccc(C3(CO)CC3)cc2)c1F` at or above 6?
0

Threshold query (pIC50 >= 6) on `CCC[C@H](N)c1ccc(Cl)c(Oc2ccccc2)c1F`
1

Textbook exercise: given the entry `CC[C@@H](N[C@@H](C)CC(N)=O)c1ccc(Cl)c(Oc2ccc(N)nc2)c1F` , state whether its pIC50 is greater than or equal to 6.
1

* * *

STUDY_SYSTEM: HCV NS3 protease (full length NS34a) (Hepatitis C virus genotype 1b, UniProt P26663)
Construct: The protease activity of the full length NS34a was measured using a FRET-based assay; made in house
ASSAY_OVERVIEW: HCV NS3 protease assay (FRET, full length NS34a)
Format: biochemical
RECORDED_CONDITIONS: protease activity of full length NS34a, FRET peptide substrate; read-out: Activity IC50
Parameter pIC50: see the listing below.
For clarity, pIC50 is expressed as the negative log10 of concentration in mol/L.

Please review the following examples before continuing.
COMPOUND	pIC50
CC[C@@H](N)c1ccc(Cl)c(Oc2ccc(CC#N)cc2)c1F [Example 179]	6.21
Cc1ccc(CN[C@H]2CC[C@H](N)CC2)c(F)c1Oc1ccccc1 [Example 272]	6.06
C[C@@H](CO)N[C@H](CC1CCNCC1)c1ccc(F)c(Oc2ccccc2)c1F [Example 89]	5.41
CC[C@@H](N)c1ccc(Cl)c(Oc2ccccc2)c1F [Example 78]	5.92
CC[C@H](Nc1cccc2c1CNC2)c1ccc(F)c(Oc2ccccc2)c1F [Example 136]	5.96

Give the measured pIC50 of CCC(NC1CCC1)c1ccc(F)c(Oc2ccccc2)c1F (stereo not drawn) [Example 44] .
5.33

Recorded pIC50 of CC[C@@H](N[C@H](C)CC(N)=O)c1ccc(Cl)c(Oc2ccc(N)nc2)c1F [Example 123] , please.
5.80

Recorded pIC50 of CC[C@@H](N[C@H](CC(N)=O)C(C)C)c1ccc(Cl)c(Oc2ccccc2)c1F [Example 143] , please.
6.27

Which measured pIC50 value corresponds to CC[C@@H](N[C@H](C)CC(N)=O)c1ccc(Cl)c(Oc2ccc(-c3cnco3)cc2)c1F [Example 220] ?
5.34

* * *

Items are presented alongside their recorded pIC50.
STUDY_SYSTEM: HCV NS3 protease (full length NS34a) (Hepatitis C virus genotype 1b, UniProt P26663)
Construct: The protease activity of the full length NS34a was measured using a FRET-based assay; made in house
ASSAY_OVERVIEW: HCV NS3 protease assay (FRET, full length NS34a)
Assay type: biochemical
RECORDED_CONDITIONS: protease activity of full length NS34a, FRET peptide substrate; read-out: Activity IC50
Protocol: The HCV NS3 protease functions have been extensively studied and are considered as potential targets for antiviral therapy: see for example the many references listed in the introductory section of this application. Therefore, the activity of the compounds of the invention as anti-HCV agents was assessed using a full length HCV NS3 protease. […]
Counter-ions that a name gives are not always drawn.
# pIC50 is unitless: minus log10 of the molar concentration; print number only

COMPOUND	pIC50
C[C@@H](CO)N[C@@H](CC1CCNCC1)c1ccc(F)c(Oc2ccccc2)c1F	5.17
N[C@H]1CC[C@H](CNCc2ccc(Cl)c(Oc3ccccc3)c2F)CC1	5.96
CCCCC(N)c1ccc(F)c(Oc2ccccc2)c1F (centres unmarked)	5.74
CC[C@@H](N[C@@H](C)CC(=O)N[C@H]1C[C@H](N)C1)c1ccc(Cl)c(Oc2ccccc2)c1F	5.46

Please look at the following compound next.
What does the record list as pIC50 for CCC(N)c1ccc(F)c(Oc2ccccc2)c1F (centres unmarked) [Example 3, hydrochloride] ?
5.68

* * *

STUDY_SYSTEM: HCV NS3 protease (full length NS34a) (Hepatitis C virus genotype 1b)
Construct: The protease activity of the full length NS34a was measured using a FRET-based assay; made in house
ASSAY_OVERVIEW: HCV NS3 protease assay (FRET, full length NS34a)
Type: biochemical
RECORDED_CONDITIONS: protease activity of full length NS34a, FRET peptide substrate; read-out: Activity IC50
Each entry below carries its reported log10 IC50.
Heads up, the numbers here are log10 of IC50 in µM units.

Use the examples below as a reference point.
COMPOUND	ENDPOINT_LABEL	NUMERIC_READOUT
CC[C@@H](N[C@H](C)CO)c1ccc(F)c(Oc2ccccc2)c1F	log10 IC50	0.00
CC[C@@H](N)c1ccc(Cl)c(Oc2cccc([N+](=O)[O-])c2)c1F	log10 IC50	0.84
CC[C@@H](N)c1ccc(Cl)c(Oc2ccc(C3(C#N)CC3)cc2)c1F	log10 IC50	0.49
N[C@H]1CC[C@H](NCc2ccc(F)c(Oc3ccccc3)c2F)CC1	log10 IC50	-0.14

Provide the documented log10 IC50 with HCV NS3 protease (full length NS34a) (Hepatitis C virus genotype 1b) as the system for CCCC(N)c1ccc(F)c(Oc2ccccc2)c1F (stereo not drawn)
0.08

* * *

STUDY_SYSTEM: HCV NS3 protease (full length NS34a) (Hepatitis C virus genotype 1b)
Construct: The protease activity of the full length NS34a was measured using a FRET-based assay; made in house
ASSAY_OVERVIEW: HCV NS3 protease assay (FRET, full length NS34a)
Format: biochemical
RECORDED_CONDITIONS: protease activity of full length NS34a, FRET peptide substrate; read-out: Activity IC50
The reader will find reported pIC50 values listed item by item below.
The meaning of pIC50 here: minus log10 of the concentration in molar units.

Please state recorded pIC50 (tested on HCV NS3 protease (full length NS34a) (Hepatitis C virus genotype 1b)) of CCC(NC(C)C)c1ccc(F)c(Oc2ccccc2)c1F (centres unmarked) [Example 34]
5.40

Requested read-out pIC50, target or system HCV NS3 protease (full length NS34a) (Hepatitis C virus genotype 1b), entry CC[C@@H](N[C@@H](C)CC(=O)N[C@@H](C)CN)c1ccc(Cl)c(Oc2ccccc2)c1F [Example 251]
7.21

Given the entry CC(CO)NC(c1ccc(F)c(Oc2ccccc2)c1F)C1CCNCC1 (single isomer, unassigned) [Example 75] , what pIC50 was observed with HCV NS3 protease (full length NS34a) (Hepatitis C virus genotype 1b)?
5.48

Write down the reported pIC50 of C[C@@H](CC(N)=O)N[C@H](CCO)c1ccc(Cl)c(Oc2ccccc2)c1F [Example 358] , test system: HCV NS3 protease (full length NS34a) (Hepatitis C virus genotype 1b).
6.04

Item: CC[C@H](N)c1ccc(Cl)c(Oc2ccccc2)c1Cl [Example 261] Test system: HCV NS3 protease (full length NS34a) (Hepatitis C virus genotype 1b) Read-out: pIC50 Value: ?
5.92
